Value source: the supplement of paper PMC10567573

protein stability index values for the variants below.
B1: KLHDC10 (parent)
chain: FGGTGIPFGESNGNGVHVCNVKYK

- Variants of: B1
- ASSAY_PROTOCOL: protein stability index of a GFP-peptide fusion (GPS, HEK-293T) (PSI 1-6); higher = more stable;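 also: lentivirally expressed fusions sorted by FACS into six bins by GFP to DsRed ratio, PSI derived from sequencing read proportions per bin multiplied by bin number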
- TEST_SETTINGS: c terminus: a fixed tail appended
No unit in the answer, please; the number alone is enough.

FGGTGIPFGESNGNGVRVCNVKYK :: 2.13
FGGTGIPFGESNGNGVHSCNVKYK :: 2.45
FGGTGIPFGESNGNGIHVCNVKYK :: 2.46

Enquiry: Can you look up the measured protein stability index of `NGGTGIPFGESNGNGVHVCNVKYK` for me?
Return: 4.34

Enquiry: Another variant: `FGGTGIPKGESNGNGVHVCNVKYK`
Return: 3.84

Enquiry: Next variant up: `FGGTGIPFGESNGNGVHVCNVKLK`
Return: 2.07

Enquiry: Would you kindly repeat that for `FGGTGIPFGESNGNLVHVCNVKYK` ?
Return: 1.73

Enquiry: Same again, this time with `FGGTGMPFGESNGNGVHVCNVKYK`
Return: 2.07

Enquiry: // repeat for `FGGTGIPFGQSNGNGVHVCNVKYK` and report
Return: 2.94

Enquiry: What would you report for `FGGWGIPFGESNGNGVHVCNVKYK` ?
Return: 2.52

Enquiry: Continue with `VGGTGIPFGESNGNGVHVCNVKYK`
Return: 3.79
